Target: Streptavidin (Streptomyces avidinii) (UniProt P22629)
Sequence (P22629 whole entry, looked up): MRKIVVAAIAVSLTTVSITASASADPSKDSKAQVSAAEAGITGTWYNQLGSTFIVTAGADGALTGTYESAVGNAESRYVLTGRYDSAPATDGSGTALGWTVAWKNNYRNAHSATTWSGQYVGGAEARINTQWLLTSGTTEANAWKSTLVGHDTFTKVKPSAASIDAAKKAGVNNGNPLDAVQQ
Experiment: streptavidin binders on small-molecule microarray, primary screen, artefact control for SMM compound annotation, biophysical, 635/667 nm fluorescence (AID 1147);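 note: signal reflects streptavidin binding to arrayed compounds as a control protein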
Conditions: streptavidin binding, higher = more signal
Classification scheme (composite z-score): band A: < 0.02; band B: ≥ 0.02 and < 1; band C: ≥ 1

These solved cases illustrate the format of a correct answer.
{"Molecule": "O=C1O[C@@H](c2ccccc2)[C@@H](c2ccccc2)N2[C@@H](c3ccc(OCCO)cc3)[C@]3(C(=O)Nc4ccccc43)[C@@H](C(=O)Nc3nc4ccccc4s3)[C@H]12", "Target under test": "Streptavidin (Streptomyces avidinii) (UniProt P22629)", "Label": "band C"}
{"Molecule": "[N-]=[N+]=NCc1ccccc1C[C@]1(C(=O)NCCN2CCOCC2)N=C(c2ccc(OCCCO)cc2)O[C@H]1c1ccccc1N=[N+]=[N-]", "Target under test": "Streptavidin (Streptomyces avidinii) (UniProt P22629)", "Label": "band C"}
{"Molecule": "O=C1O[C@@H](c2ccccc2)[C@@H](c2ccccc2)N2[C@@H](c3ccc(O)cc3)[C@]3(C(=O)Nc4ccc(C#CC5(O)CCCCCC5)cc43)[C@@H](C(=O)N3CCCCCCC3)[C@H]12", "Target under test": "Streptavidin (Streptomyces avidinii) (UniProt P22629)", "Label": "band C"}
{"Molecule": "O=C/C=C/c1ccc2c(c1)OCO2", "Target under test": "Streptavidin (Streptomyces avidinii) (UniProt P22629)", "Label": "band A"}
{"Molecule": "CCCCCN1CC=CC23O[C@@H]4C=CCOC(=O)[C@@H]4[C@H]2C(=O)N(CCCO)[C@@H]3C1=O (stereo not given in full)", "Target under test": "Streptavidin (Streptomyces avidinii) (UniProt P22629)", "Label": "band A"}

q: Sort "O=C(CS)NCCCCCCNC(=O)[C@H]1C[C@H]2C(=O)N3CCC[C@H]3C(=O)N2[C@H]1c1cccc(OCCO)c1" into one of the categories.
a: band B

q: For "CN(C)CCCNC(=O)[C@@]1(Cc2ccccc2I)c2ccccc2C(=O)N(Cc2ccccc2C(F)(F)F)[C@H]1c1ccc(CO)cc1" , which composite z-score bin applies?
a: band B

q: Band assignment needed for "CC(C)C[C@@H]1NC(=O)[C@H]2C[C@@H](C(=O)NCCCCCNC(=O)CS)[C@@H](c3cccc(OCCO)c3)N2C1=O" please.
a: band B

q: Assign a bin to "COc1c(C)cc(-c2cc3c(c(-c4ccc(Oc5ccccc5)cc4)n2)[Si](C(C)C)(C(C)C)OC3)cc1C"
a: band A
